Test system: UACC-62 melanoma
Assay: NCI-60 one-dose screen, 48 h
Details: 10 µM
Compounds without any hit were thinned out: in the full panel of roughly 83,000, 20% have a hit. The source made the active and inactive calls. How the source made its calls: active means growth percent below 10; inactive means the rest.
Labels: 1 = active, 0 = inactive

compound: Oc1[nH]c2ccc(Cl)cc2c1/C=c1/ccc2c(c1)N=C(c1cccs1)N=2
classification: 0
//
compound: O=C(Cc1csc2nc(-c3ccc(Cl)cc3)cn12)N/N=C/c1ccccc1O
classification: 0
//
compound: COc1cccc(C(=O)Nc2ccc(CN3CCc4nc5cc(OC)c(OC)cc5cc43)cc2)c1
classification: 0
//
compound: Nc1c(C(=O)Nc2ccccc2)sc2nc3c(cc12)C(O)CCC3 (stereo not given)
classification: 0
//
compound: COc1cc(-c2cc(/C=C/C(=O)c3ccc(F)c(F)c3)[nH]n2)cc(OC)c1OC
classification: 0
//
compound: C#Cc1ccc(-n2c(/C=C/c3cc(OC)cc(OC)c3)nc3ncccc3c2=O)cc1
classification: 0
//
compound: O=c1oc2cc(OS(=O)(=O)c3ccccc3)ccc2c2c1CCCCC2
classification: 0
//
compound: CCN(CCCCCCCCCCN1CC(=O)N(CCCCCCCCCCN(CC)Cc2ccccc2OC)CC1=O)Cc1ccccc1OC
classification: 1
//
compound: Cc1cccc(Cl)c1NC(=O)c1ccc2nc(NC(=O)NC3CCN(C)CC3)sc2c1
classification: 0
//
compound: O=[P@@]1(c2ccccc2)O[C@H](COCc2ccccc2)[C@@H](OCc2ccccc2)[C@H](OCc2ccccc2)[C@H]1O
classification: 0
//
compound: COc1cc2nc(Nc3cccc(NC(C)=O)c3)nc(N)c2cc1OC
classification: 0
//
compound: Cn1c([N+](=O)[O-])cnc1/C=C1\Oc2ccc(Cl)cc2C1=O
classification: 1
//
compound: CCCN(CCC)CCC(O)c1cc2c(c3ccccc13)CCCC2 (stereo not given)
classification: 0
//
compound: O=C1OCC2=C1C(c1ccc(Cl)c(Cl)c1)c1cc3c(cc1N2CCO)OCCO3 (stereo not given)
classification: 0
//
compound: COc1ccccc1/C=C/C(=O)c1ccccc1
classification: 0
//
compound: COc1ccc(-c2nnc(-c3c(-c4ccccc4)nc4ncccn34)o2)cc1OC
classification: 0
//
compound: COc1ccc(-c2nn(-c3cccc(NC(=O)Nc4cccc(C(F)(F)F)c4)c3)cc2-c2ccncc2)cc1Cl
classification: 1
//
compound: COc1ccc2nc3ccccc3c(NCCNCC(C)O)c2c1 (stereo not given)
classification: 1
//
compound: Cc1ccc(C(=O)N2C/C(=C/c3ccccc3)C(=O)/C(=C/c3ccccc3)C2)cc1
classification: 0
//
compound: O=C(Nc1ccc(OS(=O)(=O)c2ccccc2)cc1)C12CC3CC(CC(C3)C1)C2
classification: 0
//
compound: CCn1cc(C(=O)O)c(=O)c2cnc(N3CCCC3)nc21
classification: 0
//
compound: CCCCCCCCCCCCCCCCN(C(C)c1ccccc1)S(=O)(=O)c1ccc(OC)c(N)c1 (stereo not given)
classification: 0
//
compound: Nc1ccc2c(c1)Cc1cc(N)c(Br)cc1-2
classification: 0
//
compound: Cc1cc(N(CCCNc2ccnc3cc(Cl)ccc23)Cc2ccc3c(c2)OCO3)nc(N2CCCCC2)n1
classification: 1
//
compound: COc1ccc2nc3cc(Cl)ccc3c(NCCNCC(C)O)c2c1 (stereo not given)
classification: 0
//
compound: CCCCCCCCN(CCCCCCCC)CCCCCCCCCN1CCCc2cc(OC)ccc21
classification: 0
//
compound: COc1ccc2c(c1)sc1nc(-c3ccccc3)c(-c3ccc(O)c(OC)c3)n12
classification: 0
//
compound: COc1ccc(-c2ccc3cc(C(=O)Nc4ccc(O)c(C(=O)/C=C/c5cc(OC)c(OC)c(OC)c5)c4)ccc3c2)cc1
classification: 0
//
compound: Nc1ccccc1NC(=O)CCCCC(=O)Nc1ccc2c(c1)/C(=C/c1ccc[nH]1)C(=O)N2
classification: 0
//
compound: ClC(Cl)(Cl)c1nc2nccnc2[nH]1
classification: 0
//
compound: N#CC1=C(Nc2ccccc2Cl)SC(c2ccccc2O)NC1=O (stereo not given)
classification: 0
//
compound: CCOC(=O)N1C=CC2C=CC1C1C=CC=CC2N1C(=O)OCC (stereo not given)
classification: 0
//
compound: COc1cc(CNc2ccccc2C(=O)N2CCN(C(=O)c3cc(-c4cc(OC)c(OC)c(OC)c4)n4nc(-c5ccccc5)cc4n3)CC2)cc(OC)c1OC
classification: 0
//
compound: CCCCOc1ccc(NC(=O)Nc2nnc(C)s2)cc1
classification: 0
//
compound: O=C(Nc1cccc(-n2cc(-c3ccncc3)c(-c3ccc(O)c(Cl)c3)n2)c1)c1cc(C(F)(F)F)cc(C(F)(F)F)c1
classification: 0
//
compound: CCCCCCN1CCN(Cc2ccc(N(CC)CC)cc2)C(=O)C1=O
classification: 0
//
compound: O=C(Nc1ccc(CN2CCc3nc4cc(O)c(O)cc4cc32)cc1)c1ccc(Cl)c(Cl)c1
classification: 0
//
compound: Cc1cc(=O)n2nnc3c4ccccc4ccc3n12
classification: 0
//
compound: COc1ccc(OC)c(/C=C/c2nnc(Nc3ccc(Cl)cc3)o2)c1
classification: 0
//
compound: O=C(Nc1ccc(Cl)c(Cl)c1)Nc1c(Oc2ccc(Cl)c(Cl)c2)ccc(Cl)c1S(=O)(=O)O
classification: 0
